Molecular target: human GLP-1 receptor (human, UniProt P43220 24-463)
Assay: cell-based or functional assay
*1 amine or outer side, *2 acyl side, *3 side chain or, on linkers, in order; H or OH if unused. Where no end group is shown, it is not given here. Side-chain parts run from the residue outwards. [ ]: non-standard residue; d: D form. The star is where a group is joined. C20 diacid = O=C(O)CCCCCCCCCCCCCCCCCCC(=O)*; γGlu = O=C(O)[C@H](CCC(=O)[*:2])N[*:1]; εLys = N[C@@H](CCCCN[*:1])C(=O)[*:2]; dtOrn = not defined here; AEEA = NCCOCCOCC(=O)O; Aib = CC(C)(N)C(=O)O
Label TRUE when EC50, CreLuc reporter, 100% hP is strictly below 6 nM; at or above that, label FALSE.

binder | category
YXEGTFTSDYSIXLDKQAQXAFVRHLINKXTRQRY (Aib at 2, 13, 20, 30; Lys29 epsilon-amino: C18DA-gGlu-gGlu-gGlu-gGlu-gGlu-gGlu-eLys; C-terminal amide) [Compound 105] | TRUE
Y[Aib]EGTFTSDYSI[Aib]LEKQAQ[Aib]AFVRHLINK([dtOrn-γGlu-γGlu-γGlu-γGlu-γGlu-γGlu-C20 diacid])[Aib]TRQRY-NH2 (reading uncertain) [Compound 97] | FALSE
Y[Aib]EGTFTSDYSI[Aib]LEKQAE[Aib]AFVRHLINK([εLys-AEEA-γGlu-γGlu-γGlu-γGlu-γGlu-C20 diacid])[Aib]TRQRY-NH2 [Compound 161] | TRUE

Exercise: hey, is EC50, CreLuc reporter, 100% hP for YXEGTFTSDYSEXLEKQAQXAFVRHLINKXTRQRY (Aib at 2, 13, 20, 30; Lys29 epsilon-amino: C18DA-gGlu-gGlu-gGlu-gGlu-gGlu-gGlu-eLys; C-terminal amide) [Compound 112] lower than 6 nM or not?
Key: FALSE

Exercise: Quick check: does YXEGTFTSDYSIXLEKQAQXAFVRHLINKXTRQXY (Aib at 2, 13, 20, 30; dOR at 34; Lys29 epsilon-amino: C18DA-gGlu-gGlu-gGlu-gGlu-gGlu; C-terminal amide) [Compound 96] have EC50, CreLuc reporter, 100% hP under 6 nM?
Key: TRUE
